PROTOCOL_NOTES: Plasma pharmacokinetics of 5-FU in rats with or without MMP-8 inhibitor before whole pelvic irradiation 2 Gy
Assay type: in vivo, Sprague-Dawley rats
TEST_CONTEXT: Sprague-Dawley, rat, plasma, iv, 100 mg/kg, 5-FU 100 mg/kg i.v., whole pelvic irradiation 2 Gy with solvent
RECORDED_ENDPOINT: AUC (ng·h/mL)

INSERT INTO results (molecule, unit_name, reported_value) VALUES
  ('O=c1[nH]cc(F)c(=O)[nH]1 [5-FU, 5-fluorouracil]', 'ng·h/mL', 55100);

----------
PROTOCOL_NOTES: Plasma pharmacokinetics of 5-FU in rats after whole pelvic irradiation
Type: in vivo, Sprague-Dawley rats
TEST_CONTEXT: Sprague-Dawley, rat, iv, 100 mg/kg, 5-FU 100 mg/kg i.v., whole pelvic irradiation 0.5 Gy, read-out: Vss
RECORDED_ENDPOINT: Vd (L/kg)

INSERT INTO results (compound, recorded_endpoint, unit_name, reported_value) VALUES
  ('O=c1[nH]cc(F)c(=O)[nH]1 [5-FU, 5-fluorouracil]', 'Vd', 'L/kg', 0.775);

----------
PROTOCOL_NOTES: Plasma pharmacokinetics of 5-FU in rats with or without MMP-8 inhibitor before whole pelvic irradiation 2 Gy
Type: in vivo, Sprague-Dawley rats
TEST_CONTEXT: Sprague-Dawley, rat, plasma, iv, 100 mg/kg, 5-FU 100 mg/kg i.v., controls without solvent
RECORDED_ENDPOINT: clearance (mL/min/kg)

INSERT INTO measurements (record_smiles, reported_value) VALUES
  ('O=c1[nH]cc(F)c(=O)[nH]1', 23.4);

----------
PROTOCOL_NOTES: Plasma pharmacokinetics of 5-FU in rats after whole pelvic irradiation
Assay type: in vivo, Sprague-Dawley rats
TEST_CONTEXT: Sprague-Dawley, rat, iv, 100 mg/kg, 5-FU 100 mg/kg i.v., whole pelvic irradiation 0.5 Gy
RECORDED_ENDPOINT: Cmax (µg/mL)

INSERT INTO results (record_smiles, recorded_endpoint, unit_name, reported_value) VALUES
  ('O=c1[nH]cc(F)c(=O)[nH]1', 'Cmax', 'µg/mL', 167);

----------
PROTOCOL_NOTES: Bile pharmacokinetics of 5-FU in rats after whole pelvic irradiation
Format: in vivo, Sprague-Dawley rats
TEST_CONTEXT: Sprague-Dawley, rat, iv, 100 mg/kg, 5-FU 100 mg/kg i.v., controls 0 Gy
RECORDED_ENDPOINT: half-life (min)

INSERT INTO measurements (record_smiles, reported_value) VALUES
  ('O=c1[nH]cc(F)c(=O)[nH]1', 9.2);

----------
PROTOCOL_NOTES: Bile pharmacokinetics of 5-FU in rats after whole pelvic irradiation
Assay type: in vivo, Sprague-Dawley rats
TEST_CONTEXT: Sprague-Dawley, rat, iv, 100 mg/kg, 5-FU 100 mg/kg i.v., whole pelvic irradiation 2 Gy
RECORDED_ENDPOINT: MRT

INSERT INTO measurements (record_smiles, reported_value) VALUES
  ('O=c1[nH]cc(F)c(=O)[nH]1', '13.9 min');

----------
PROTOCOL_NOTES: Plasma pharmacokinetics of 5-FU in rats with or without MMP-8 inhibitor before whole pelvic irradiation 2 Gy
Assay type: in vivo, Sprague-Dawley rats
TEST_CONTEXT: Sprague-Dawley, rat, plasma, iv, 100 mg/kg, 5-FU 100 mg/kg i.v., controls with solvent
RECORDED_ENDPOINT: clearance (mL/min/kg)

INSERT INTO results (compound, recorded_endpoint, reported_value) VALUES
  ('O=c1[nH]cc(F)c(=O)[nH]1 [5-FU, 5-fluorouracil]', 'clearance', 23.4);

----------
PROTOCOL_NOTES: Plasma pharmacokinetics of 5-FU in rats after whole pelvic irradiation
Format: in vivo, Sprague-Dawley rats
TEST_CONTEXT: Sprague-Dawley, rat, iv, 100 mg/kg, 5-FU 100 mg/kg i.v., controls 0 Gy
RECORDED_ENDPOINT: MRT (min)

INSERT INTO measurements (record_smiles, unit_name, reported_value) VALUES
  ('O=c1[nH]cc(F)c(=O)[nH]1', 'min', 36.5);
